Ref: the supplement of paper PMC4862054

Tested on: CAL-51
assay.text: normalised viability (% of control), CellTiter-Blue; higher = more viable cells (about 100 = DMSO control)
condition.summary: incubation time: 72 h
Parameter: normalised viability. Scope: all listed entries.
readout.name: normalised viability (%)

>>> df
                                   molecule          readout_name  value_reported
0  CCN(CCCOc1ccc2c(Nc3cc(CC(=O)Nc4cccc(F)c4)[nH]n3)ncnc2c1)CCOP(=O)(O)O [Barasertib] (100 nM)  normalised viability            60.6
1  CN[C@@H]1C[C@H]2O[C@@](C)([C@@H]1OC)n1c3ccccc3c3c4c(c5c6ccccc6n2c5c31)C(=O)N[C@H]4O [UCN-01] (1000 nM)  normalised viability            16.8
2  CN(N=O)C(=O)N[C@@H](C=O)[C@@H](O)[C@H](O)[C@H](O)CO [Streptozocin] (1000 nM)  normalised viability             103
3  Oc1nc(-c2ccc(C(F)(F)F)cc2)nc2c1CSCC2 [XAV-939] (1000 nM)  normalised viability            93.2

====

Tested on: HDQ-P1
assay.text: normalised response (% of control), CellTiter-Glo; higher = more viable cells (100 = DMSO, 0 = benzethonium chloride kill control)
condition.summary: incubation time: 72 h
# normalised response values compiled below
readout.name: normalised response

                                   molecule         readout_name  value_reported
0  CCC(C)(C)C(=O)O[C@H]1C[C@@H](C)C=C2C=C[C@H](C)[C@H](CC[C@@H]3C[C@@H](O)CC(=O)O3)[C@H]21 [Simvastatin] (10000 nM)  normalised response             65%
1  Cn1c(CCCC(=O)O)nc2cc(N(CCCl)CCCl)ccc21 [Bendamustine] (10000 nM)  normalised response            113%
2  CC(C)Cn1cnc2c(N)nc3ccccc3c21 [Imiquimod] (2500 nM)  normalised response            103%

====

Tested on: DU-4475
assay.text: normalised viability (% of control), CellTiter-Blue; higher = more viable cells (about 100 = DMSO control)
condition.summary: incubation time: 72 h
Could you mark each record Met if its normalised viability falls strictly under 80%, and Not met if it equals or exceeds it?

molecule	label.class
Cc1ccc(C(=O)Nc2ccc(CN3CCN(C)CC3)c(C(F)(F)F)c2)cc1C#Cc1cnc2cccnn12 [Ponatinib] (300 nM)	Met
CCC1(c2ccc(N)cc2)CCC(=O)NC1=O (configuration not stated) [Aminoglutethimide] (3000 nM)	Not met
NC(=O)Nc1cc(-c2cccc(F)c2)sc1C(=O)N[C@H]1CCCNC1 [AZD 7762] (300 nM)	Not met
CCC1=C[C@@H]2CN(C1)Cc1c([nH]c3ccccc13)[C@@](C(=O)OC)(c1cc3c(cc1OC)N(C)[C@H]1[C@@](O)(C(=O)OC)[C@H](OC(C)=O)[C@]4(CC)C=CCN5CC[C@]31[C@@H]54)C2 [Vinorelbine] (3000 nM)	Met
Clc1ccc(Nc2nnc(Cc3ccncc3)c3ccccc23)cc1 [Vatalanib] (3000 nM)	Not met
Cn1c(Nc2ccc(C(F)(F)F)cc2)nc2cc(Oc3ccnc(-c4ncc(C(F)(F)F)[nH]4)c3)ccc21 [RAF265] (300 nM)	Met
